Cited source: PubChem BioAssay

test_name: HUVEC growth inhibition – cell-based, human, primary screen (AID 575);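 further: 100% = median of untreated cell wells with 0.1% DMSO on each plate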
condition_notes: HUVEC proliferation, CellTiter-Glo luminescence, 72 h; at 10 µM; stronger effect = lower value
Returns: string. Value is YES if measured viability is below 90%, and NO if it is greater than or equal to it.

compound=N#CC1=C(N)S[C@H](C(=O)C23CC4CC(CC(C4)C2)C3)[C@H]1c1ccncc1 group_label=YES
compound=Cc1ccc(NC(=O)CCC(=O)OCC(F)(F)C(F)F)cc1 group_label=NO
compound=CCN(CC)c1ccc(-c2c(C#N)c(N)nc(OC)c2C#N)cc1 group_label=YES
compound="COc1ccccc1NC(=O)c1cc2n(n1)C(C(F)(F)F)CC(c1ccc3c(c1)OCO3)N2 (stereo unspecified)" group_label=YES
compound="CC(Sc1nc(-c2ccccc2)cc(C(F)(F)F)n1)C(=O)N1CCC(C(N)=O)CC1 (stereo unspecified)" group_label=YES
compound=CCOc1ccc(C(=O)N(CN2CCCC2=O)c2ccc(C)cc2)cc1 group_label=NO
compound=O=C(Cn1c(=O)[nH]n(-c2ccccc2)c1=O)N1CCCc2ccccc21 group_label=YES
compound=N#Cc1nc(COc2ccccc2)oc1NCCCn1ccnc1 group_label=NO
compound=CCc1c(C(=O)N2CCOCC2)csc1C group_label=NO

---

Listing: viability of selected compounds
test_name: reversal of MRP1-mediated doxorubicin resistance, pilot screen, H69AR cells, doxorubicin co-treatment (AID 601)
condition_notes: H69AR cells, CellTiter-Glo, 72 h; compound alone cytotoxicity; at 10 µM
assay_metric: viability

compound="CC(C(=O)N1CCc2ccccc21)N1CCc2ccccc2C1 (configuration not stated)" assay_metric=viability recorded_value=91.6%
compound=Cc1cc2c(nn1)CCC/C2=N\O assay_metric=viability recorded_value=95.6%
compound="CC(C(=O)NCCCN1CCOCC1)n1cccc1C(=O)c1ccccc1 (configuration not stated)" assay_metric=viability recorded_value=95%
compound="N#CC1(c2ccccc2)CCC(=NO)CC1 (configuration not stated)" assay_metric=viability recorded_value=98.1%
compound=CCCN(Cc1cc2ccc(C)cc2[nH]c1=O)C(=O)c1cccnc1 assay_metric=viability recorded_value=87.4%
compound=Cc1ccc(N2CCN(C(=S)c3ccc(N(C)C)cc3)CC2)cc1 assay_metric=viability recorded_value=82.6%
compound=CC1CCN(C(=O)C2CCN(S(=O)(=O)c3cnc[nH]3)CC2)CC1 assay_metric=viability recorded_value=103%
compound="CC(=O)NC(Cc1cc(C)ccc1C)C(=O)N1CCN(C(=O)Nc2ccc(C(C)=O)cc2)CC1 (configuration not stated)" assay_metric=viability recorded_value=88.7%
compound=COCCCNC(=O)CCc1nc(-c2ccccc2Cl)no1 assay_metric=viability recorded_value=93.3%
compound=CCNS(=O)(=O)c1ccc(S(=O)(=O)N(Cc2ccccn2)C2CCCCC2)cc1 assay_metric=viability recorded_value=88.9%
compound=C=CCn1c(-c2ccccc2)c[nH]c1=S assay_metric=viability recorded_value=99.9%
compound="N#CC1=C(N)N(c2ccccc2)C2=C(C(=O)CCC2)C1c1cccs1 (configuration not stated)" assay_metric=viability recorded_value=70.3%

---

test_name: HUVEC growth inhibition – cell-based, human, primary screen (AID 575);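 further: 100% = median of untreated cell wells with 0.1% DMSO on each plate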
condition_notes: HUVEC proliferation, CellTiter-Glo luminescence, 72 h; at 10 µM; stronger effect = lower value
Listing: viability of selected compounds
assay_metric: viability (%)

compound=CCN(CC)Cc1nc2c(c(=O)[nH]1)C1(CCCCC1)Cc1ccccc1-2 uom=% recorded_value=93.6
compound="COc1cccc(C(=O)N2CCCC(c3nc(-c4cccs4)no3)C2)c1 (stereo not drawn)" uom=% recorded_value=93.4
compound=CC1=C(c2ccc(Cl)cc2)[N+](=O)C(C)(C)N1[O-] uom=% recorded_value=110
compound="CCOc1ccc(C(=O)N(Cc2ccc(N(C)C)cc2)C2CCS(=O)(=O)C2)cc1 (stereo not drawn)" uom=% recorded_value=101
compound=Cc1ccc(-c2cc(C(F)(F)F)n3ncc(C(=O)O)c3n2)cc1 uom=% recorded_value=113
compound=CCCC(=O)Nc1ccccc1-c1nnn(CC(=O)Nc2ccc(OCC)cc2)n1 uom=% recorded_value=62
compound=CCCCOC(=O)CNc1nnc(SCC(=O)OCC)[nH]c1=O uom=% recorded_value=74.8
compound=COc1cccc(NC(=O)CSc2nnc(-c3cccs3)n2C)c1 uom=% recorded_value=116
compound=O=C(CSc1nnc(CNC(=O)c2cccs2)o1)NC1CCCC1 uom=% recorded_value=102
compound=Cc1c(C#N)sc2nc(-c3ccccc3)nc(N3CCCC3)c12 uom=% recorded_value=82.1
compound=Cc1ccc(OC(=O)CCC(=O)OCCCC(F)(F)C(F)(F)F)cc1 uom=% recorded_value=91.2
compound=Cc1ccc(S(=O)(=O)n2nc(OC(=O)c3ccco3)cc2N)cc1 uom=% recorded_value=96.4
compound=Cc1cc(C)cc(NS(=O)(=O)c2ccc3[nH]c(=O)[nH]c3c2)c1 uom=% recorded_value=90.1
compound=CCCCOCCCNC(=O)c1ccccc1OCC uom=% recorded_value=108
compound="Cc1ccc(C(c2nnnn2CCC(C)C)N2CCN(C)CC2)cc1 (stereo not drawn)" uom=% recorded_value=97.9
compound=Cc1cc(C)cc(NS(=O)(=O)c2ccc3[nH]cc(C(=O)NCc4ccco4)c(=O)c3c2)c1 uom=% recorded_value=19
compound=COC(=O)C1CCN(C(=O)c2sc3nc(-c4ccc(F)cc4)cn3c2C)CC1 uom=% recorded_value=99.8
compound=C=CCn1c(-c2cccs2)nc2nc3ccccc3nc21 uom=% recorded_value=80.2
compound=CN(C)S(=O)(=O)c1ccc(C(=O)N2CCC(c3nc4ccccc4o3)CC2)cc1 uom=% recorded_value=95.1
compound=O=C(CSc1nc(O)c(Cc2ccccc2)c(=O)[nH]1)Nc1ccccc1 uom=% recorded_value=106
compound=O=C(Nc1ccccc1)c1cccc(N2CCCC2=O)c1 uom=% recorded_value=104
compound=CCOC(=O)c1cnc(SCC)[nH]c1=O uom=% recorded_value=84.4
compound=Cc1oc2cc(O)ccc2c(=O)c1-c1cnn(-c2ccccc2)c1 uom=% recorded_value=85
